From: patent USRE48267E1

Target: T1, NPR-B (natriuretic peptide receptor B), murine, expressed endogenously on NIH3T3 cells (murine, UniProt Q6VVW5 17-1047)
T1 sequence (looked up): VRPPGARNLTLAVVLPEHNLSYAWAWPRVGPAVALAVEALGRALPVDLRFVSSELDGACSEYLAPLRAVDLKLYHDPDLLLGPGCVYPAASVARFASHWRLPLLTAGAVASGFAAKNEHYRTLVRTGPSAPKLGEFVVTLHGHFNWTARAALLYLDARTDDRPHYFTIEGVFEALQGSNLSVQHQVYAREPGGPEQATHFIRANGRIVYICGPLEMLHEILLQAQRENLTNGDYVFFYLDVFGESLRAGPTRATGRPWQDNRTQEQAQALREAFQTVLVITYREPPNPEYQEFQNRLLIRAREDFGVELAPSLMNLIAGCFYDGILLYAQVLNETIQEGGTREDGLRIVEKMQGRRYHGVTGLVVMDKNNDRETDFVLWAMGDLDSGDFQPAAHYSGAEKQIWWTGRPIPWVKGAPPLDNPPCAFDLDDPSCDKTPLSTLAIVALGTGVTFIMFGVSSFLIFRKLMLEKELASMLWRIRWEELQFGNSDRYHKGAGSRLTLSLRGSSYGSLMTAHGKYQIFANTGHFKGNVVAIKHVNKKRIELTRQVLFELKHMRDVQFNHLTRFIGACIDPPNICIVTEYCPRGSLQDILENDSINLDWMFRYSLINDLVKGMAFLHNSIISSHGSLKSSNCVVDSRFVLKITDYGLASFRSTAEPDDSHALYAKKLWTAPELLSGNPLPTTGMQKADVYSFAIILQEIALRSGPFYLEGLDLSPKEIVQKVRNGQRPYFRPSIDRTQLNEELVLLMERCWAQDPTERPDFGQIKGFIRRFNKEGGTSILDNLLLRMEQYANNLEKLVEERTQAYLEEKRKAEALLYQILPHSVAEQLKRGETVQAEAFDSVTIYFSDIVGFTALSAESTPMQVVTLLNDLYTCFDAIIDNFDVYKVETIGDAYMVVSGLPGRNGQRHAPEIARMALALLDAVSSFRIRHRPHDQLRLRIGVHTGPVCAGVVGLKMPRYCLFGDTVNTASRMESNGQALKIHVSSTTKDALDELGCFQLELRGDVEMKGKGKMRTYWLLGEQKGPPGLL
Assay: cell-based or functional assay
Where no end group is shown, it is not given here. PEO12 = PEO12, 0.6 kDa, monodispersed
OBSERVED PROPERTY: cGMP response rel. to 1 uM CNP22; 10 nM peptide, NIH3T3 cells

Problem: Using known records, supply cGMP response rel. to 1 uM CNP22; 10 nM peptide, NIH3T3 cells for PEG2K-GANRRGLSRGCFGLKLDRIGSMSGLGC (ends and bridges not checked) [PEG2K-GANRR-CNP22, K4R]
Solution: 15 rel. to 1 uM CNP22 (100)

Problem: Using known records, supply cGMP response rel. to 1 uM CNP22; 10 nM peptide, NIH3T3 cells for PEO12-GANSSGLSRGCFGLKLDRIGSMSGLGC (ends and bridges not checked) [PEO12-GANSS-CNP22, K4R]
Solution: 8 rel. to 1 uM CNP22 (100)

Problem: Using known records, supply cGMP response rel. to 1 uM CNP22; 10 nM peptide, NIH3T3 cells for PEO12-RGLSRGCFGLKLDRIGSMSGLGC (ends and bridges not checked) [PEO12-R-CNP22, K4R]
Solution: 23 rel. to 1 uM CNP22 (100)
